Below are Ki values measured for Cytochrome P450 2D6 (Homo sapiens, UniProt P10635).
VALUE_KIND: Ki (nM)

SMILES_DATA: COc1ccc(C(C)C)cc1CN[C@H]1C2CCN(CC2)[C@H]1C(c1ccccc1)c1ccccc1
Ki (nM): 420

a = COc1ccc(C(C)(C)C(F)(F)F)cc1CN[C@H]1CCCN[C@H]1c1ccccc1
b = COc1ccc(C(C(F)(F)F)C(F)(F)F)cc1CN[C@H]1CCCN[C@H]1c1ccccc1
c = COc1ccc(CC(F)(F)F)cc1CN[C@H]1CCCN[C@H]1c1ccccc1
# input Arrange these 3 compounds in increasing order of Ki. Would you mind listing the labels in the order asked for?
# output c, a, b
(c: 70 nM, a: 1340 nM, b: 2100 nM)

====

- Test system: Liver microsomes
- MEASUREMENT_NOTES: Metabolic stability in human liver microsome assessed as ratio of half life between CYP2D6-deficient microsome and CYP2D6-deficient microsome with addition of exogenous CYP2D6
- Format: ADME
VALUE_KIND: Ratio

MOLECULE: COc1ccc(C(C)C(F)(F)F)cc1CN[C@H]1CCCN[C@H]1c1ccccc1 (mixture of isomers)
Ratio: 2.2

1 = COc1ccc(CC(F)(F)F)cc1CN[C@H]1CCCN[C@H]1c1ccccc1
2 = COc1cc2c(cc1CN[C@H]1CCCN[C@H]1c1ccccc1)C(C)(C(F)(F)F)CCC2 (mixture of isomers; 21)
# input Sorting ascending by Ratio, which comes first: 1 or 2 ? Your choice should be expressed through its label.
# output 2
(2: 1.8, 1: 4.25)

====

- MEASUREMENT_NOTES: Half life in dog at 1 mg/kg, iv
- Assay type: ADME, organism-based, Canis lupus familiaris
- Set-up: dose 1 mg/kg, route intravenous
- ASSAY_SETUP: in vivo
VALUE_KIND: half-life (h)
Please respond with the number in h and leave the unit unwritten.

# input Query: half-life; subject: COc1cc2c(cc1CN[C@H]1CCCN[C@H]1c1ccccc1)[C@](C)(C(F)(F)F)OCC2
# output 3.8

====

- EXPERIMENTAL_SYSTEM: Substance-P receptor (Homo sapiens, UniProt P25103)
- Sequence (P25103 whole entry): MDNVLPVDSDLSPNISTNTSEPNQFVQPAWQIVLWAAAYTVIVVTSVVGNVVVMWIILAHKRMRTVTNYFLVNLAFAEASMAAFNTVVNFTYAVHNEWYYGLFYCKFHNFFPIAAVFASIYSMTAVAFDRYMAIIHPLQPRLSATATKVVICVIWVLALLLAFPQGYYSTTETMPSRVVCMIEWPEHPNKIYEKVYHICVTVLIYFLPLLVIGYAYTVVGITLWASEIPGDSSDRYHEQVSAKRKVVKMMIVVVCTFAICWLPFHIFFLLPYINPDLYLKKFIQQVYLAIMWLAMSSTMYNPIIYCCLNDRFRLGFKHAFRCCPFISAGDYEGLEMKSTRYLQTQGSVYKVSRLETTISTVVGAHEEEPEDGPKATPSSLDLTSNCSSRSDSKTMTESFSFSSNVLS
- MEASUREMENT_NOTES: Displacement of [3H]SP from NK1 receptor in human IM9 cells
VALUE_KIND: pKi
Friendly reminder that pKi comes from taking -log10 of the concentration in mol/L.

# input Query: pKi; subject: COc1cc2c(cc1CN[C@H]1CCCN[C@H]1c1ccccc1)[C@](C)(C(F)(F)F)OCC2
# output 9.70

====

- EXPERIMENTAL_SYSTEM: UniProtKB P25103
- MEASUREMENT_NOTES: Displacement of [3H]SP from NK1 receptor in human IM9 cells
pIC50: −log10 of the molar value.
VALUE_KIND: pIC50

Completed entries (count: 5):
MOLECULE: COc1cc2c(cc1CN[C@H]1CCCN[C@H]1c1ccccc1)C(C)(C(F)(F)F)CCC2 (mixture of isomers; 22)
pIC50: 9.47
//
MOLECULE: COc1cc2c(cc1CN[C@H]1CCCN[C@H]1c1ccccc1)C(C)(C(F)(F)F)OC2 (mixture of isomers; 14)
pIC50: > 10.00
//
MOLECULE: COc1cc2c(cc1CN[C@H]1CCCN[C@H]1c1ccccc1)C(C)(C(F)(F)F)OC2 (mixture of isomers; 15)
pIC50: > 10.00
//
MOLECULE: COc1cc2c(cc1CN[C@H]1CCCN[C@H]1c1ccccc1)C(C)(C(F)(F)F)CC2 (mixture of isomers)
pIC50: > 10.00
//
MOLECULE: COc1ccc(C(C)(F)C(F)(F)F)cc1CN[C@H]1CCCN[C@H]1c1ccccc1 (mixture of isomers)
pIC50: > 10.00

# input Query: pIC50; subject: COc1cc2c(cc1CN[C@H]1CCCN[C@H]1c1ccccc1)C(C)(C(F)(F)F)CCC2 (mixture of isomers; 21)
# output > 10.00

====

- EXPERIMENTAL_SYSTEM: Substance-P receptor (Homo sapiens, UniProt P25103)
- MEASUREMENT_NOTES: Displacement of [3H]SP from NK1 receptor in human IM9 cells
pIC50: −log10 of the molar value.
VALUE_KIND: pIC50

MOLECULE: COc1ccc(C(F)C(F)(F)F)cc1CN[C@H]1CCCN[C@H]1c1ccccc1 (mixture of isomers)
OBSERVED_RESULT: 9.15

MOLECULE: COc1cc2c(cc1CN[C@H]1CCCN[C@H]1c1ccccc1)[C@@](C)(C(F)(F)F)OCC2
OBSERVED_RESULT: 9.47

MOLECULE: COc1ccc(C(C)(C)C(F)(F)F)cc1CN[C@H]1CCCN[C@H]1c1ccccc1
OBSERVED_RESULT: 9.70

MOLECULE: COc1ccc(CC(F)(F)F)cc1CN[C@H]1CCCN[C@H]1c1ccccc1
OBSERVED_RESULT: 9.05

MOLECULE: COc1cc2c(cc1CN[C@H]1CCCN[C@H]1c1ccccc1)C(C(F)(F)F)CCC2 (mixture of isomers; 17)
OBSERVED_RESULT: 9.30

1 = COc1cc2c(cc1CN[C@H]1CCCN[C@H]1c1ccccc1)C(C(F)(F)F)CC2 (mixture of isomers; 11)
2 = COc1cc2c(cc1CN[C@H]1CCCN[C@H]1c1ccccc1)C(C)(C(F)(F)F)OC2 (mixture of isomers; 16)
3 = COc1cc2c(cc1CN[C@H]1CCCN[C@H]1c1ccccc1)C(C(F)(F)F)CC2 (mixture of isomers; 10)
# input Order the records so the highest pIC50 appears first and the lowest last. Would you mind listing the labels in the order asked for?
# output 2, 1, 3
(2: 9.80, 1: 9.40, 3: 9.05)

a = COc1ccc(C(C)C(F)(F)F)cc1CN[C@H]1CCCN[C@H]1c1ccccc1 (mixture of isomers)
b = COc1cc2c(cc1CN[C@H]1CCCN[C@H]1c1ccccc1)C(C)(C(F)(F)F)CCC2 (mixture of isomers; 19)
# input Sorting ascending by pIC50, which comes first: a or b ? Your choice should be expressed through its label.
# output a
(a: 9.40, b: 9.68)

====

- Test system: Liver microsomes
- MEASUREMENT_NOTES: Metabolic stability in human liver microsome assessed as ratio of half life between CYP2D6-deficient microsome and CYP2D6-deficient microsome with addition of exogenous CYP2D6
- Type: ADME
VALUE_KIND: Ratio

COMPOUND: COc1ccc(C(F)C(F)(F)F)cc1CN[C@H]1CCCN[C@H]1c1ccccc1 (mixture of isomers)
VALUE_KIND: Ratio
OBSERVED_RESULT: 1.83
--
COMPOUND: COc1cc2c(cc1CN[C@H]1CCCN[C@H]1c1ccccc1)C(C)(C(F)(F)F)OC2 (mixture of isomers; 15)
VALUE_KIND: Ratio
OBSERVED_RESULT: 2.1
--
COMPOUND: COc1ccc(C(C)C)cc1CN[C@H]1C2CCN(CC2)[C@H]1C(c1ccccc1)c1ccccc1
VALUE_KIND: Ratio
OBSERVED_RESULT: 1.8
--
COMPOUND: COc1ccc(C(C(F)(F)F)C(F)(F)F)cc1CN[C@H]1CCCN[C@H]1c1ccccc1
VALUE_KIND: Ratio
OBSERVED_RESULT: 2
--
COMPOUND: COc1ccc(C(C)(C)C(F)(F)F)cc1CN[C@H]1CCCN[C@H]1c1ccccc1
VALUE_KIND: Ratio
OBSERVED_RESULT: 1.16

I = COc1cc2c(cc1CN[C@H]1CCCN[C@H]1c1ccccc1)C(C)(C(F)(F)F)CCC2 (mixture of isomers; 19)
II = COc1cc2c(cc1CN[C@H]1CCCN[C@H]1c1ccccc1)C(C(F)(F)F)CCC2 (mixture of isomers; 17)
III = COc1cc2c(cc1CN[C@H]1CCCN[C@H]1c1ccccc1)C(C(F)(F)F)CC2 (mixture of isomers; 11)
# input Arrange these 3 compounds in increasing order of Ratio. Would you mind listing the labels in the order asked for?
# output I, II, III
(I: 1.58, II: 7.35, III: 10.6)

====

- MEASUREMENT_NOTES: Volume of distribution at steady state in rat at 0.3 mg/kg, iv
- Assay type: ADME, organism-based
- Design: dose 0.3 mg/kg, route intravenous
- ASSAY_SETUP: in vivo, read-out: Vdss
VALUE_KIND: Vd (L/kg)
Please respond with the number in L/kg and leave the unit unwritten.

# input Query: Vd; subject: COc1cc2c(cc1CN[C@H]1CCCN[C@H]1c1ccccc1)[C@](C)(C(F)(F)F)OCC2
# output 7

====

- MEASUREMENT_NOTES: Volume of distribution at steady state in dog at 1 mg/kg, iv
- Format: ADME, organism-based, Canis lupus familiaris
- Parameters: dose 1 mg/kg, route intravenous
- ASSAY_SETUP: in vivo, read-out: Vdss
VALUE_KIND: Vd (L/kg)
Please respond with the number in L/kg and leave the unit unwritten.

# input Query: Vd; subject: COc1cc2c(cc1CN[C@H]1CCCN[C@H]1c1ccccc1)[C@](C)(C(F)(F)F)OCC2
# output 11
